procedure.text: yeast display, Sf9 membrane polyspecificity reagent, FACS + sequencing; frameworks hold sequencing errors

- primary.sequence: "QVQLVESGGGLVHAGGSLRLSCDASGSIFDGYGMGWYRQAPGKERELVASITWNDGSTYYADSVKGRFTISRDNAKNTVYLQMNSLKPEDTAVYYCAADQWGYEYDYWGQGTQVTVSS"
  polyreactivity (PSR sort gate): "low polyreactivity"
- primary.sequence: "QAELVESGGGLVQAGGSLRLSSAASGIIFDVYAMGWYRQAPGKERELVASIRWRGGSTYYADSVKGRFTISRDNAKNTVFLQMNSLKPEDTAVYYCAADLTRWYGRTYNYWGQGTQVTVSS"
  polyreactivity (PSR sort gate): "high polyreactivity"
- primary.sequence: "QVQLVESGGGLVQAGGSLRLSCAASGITFRGYAMGWYRQAPGKERELVASITNTDSTYYADSVKGRFTISRDNAKNTVYLQMNSLKPEDTAVYYCNAEADPYSVDYDYWGQGTQVTVSS"
  polyreactivity (PSR sort gate): "high polyreactivity"
- primary.sequence: "QVQLVESGGGLVQAGGSLRLSCAASGSIFRRNAMGWYRQAPGKERELVAAISQSGGSTYYADSVKGRFTISRDNAKNTVYLQMNSLKPEDTAVYYCAAKAHTVGGYAYYHTSTYYWGQGTQVTVSS"
  polyreactivity (PSR sort gate): "high polyreactivity"
- primary.sequence: "QVQLVESGGGLVQAGGSLRLSCAASGFNFRYYTMGWYRQAPGTERELVAVITSGGTTYYADSVKGRFTISRDNAKNTVYLQMNSLKPEDTAVYYCAADYRPRLYGVGVDYWGQGTQVTVSS"
  polyreactivity (PSR sort gate): "low polyreactivity"

====

procedure.text: yeast display, Sf9 membrane polyspecificity reagent, FACS + sequencing; frameworks hold sequencing errors

- primary.sequence: "QVQLVESGGGLVQAGGSLRLSCAASGRTYLYYVMGWYIQAPGKEREVVAAISYSGGSTYYADSVKGRFTISRDNAKNTVYLQMNSLKPEDTAVYYCTAVPVVRAGHGYDSWGQGTQVTVSS"
  polyreactivity (PSR sort gate): "high polyreactivity"
- primary.sequence: "QVQLVESGGGLVQAGGSLRLSCAASGRTFRRYAMGWYRQAPGKERELVAAISRGANTNYADSVKGRFTISRDNAKNTVYLQMNSLKPEDTAVYYCNAKQAGYYFAFGYWGQGTQVTVSS"
  polyreactivity (PSR sort gate): "high polyreactivity"
- primary.sequence: "KVQLVESGGGLVQAGGTLRLSCAASGSTFTPYAMVWYRQAPGKERELVAAIWIGGNTYYADSVKGRFTISRDNAKNTVYLQMNSLKPEDTAVYYCATENVDPDHYYDWGYDYWGQGTQVTVSS"
  polyreactivity (PSR sort gate): "low polyreactivity"
- primary.sequence: "QVQLVESGGGLVQAGGSLRLSCAASGSTFGFNALGWYRQAPGKERELVAAITFSGGTTYYADSVKGRFTISRDNAKNTVYLQMNSLKPEDTAVYYCNADVKRDRVWGGDYWGQGTQVTVSS"
  polyreactivity (PSR sort gate): "low polyreactivity"
- primary.sequence: "QVQLVESGGGLVQAGGSLRLSCAASGNIFSYNAMAWYRQAPGKERELVAAITTSSGRTYYADSVKGRFTISRDIAKNTVYLQMNSLKPEVTAVYYCNAVQRYQMGYWGQGTQVTVSS"
  polyreactivity (PSR sort gate): "high polyreactivity"
- primary.sequence: "QVQLVESGGGLVQAGGSLRLSCAASGSTFWLYAIGWYRQAPGTERELVAAIRSGDRTNYADSVKGRFTISRDNAKKTVYLEMNSLKPEDTAVYYCAAVAYLNWTPQYYWGQGTQVTVSS"
  polyreactivity (PSR sort gate): "low polyreactivity"
- primary.sequence: "QVQLVESGGGLVQAGGSLRLSCAASGSTFPRNAMGWYRLAPGKERELVAAITSGDSTYYADSVNGRFTISRDNAKNTVYLQKNSQKPEDTAVYYCGQGTQVTVSS"
  polyreactivity (PSR sort gate): "low polyreactivity"
- primary.sequence: "QVQLVESGGGLVQAGGSLRLSCAASGRIFTSNAMGWYRQAPGKERELVAAISSSSGSTYYADSVKGRFTISRDNAKNTVSLQMNSLKPEDTAVYYCAARTWRVSGTYKYDYWGQGTQVTVSS"
  polyreactivity (PSR sort gate): "low polyreactivity"
- primary.sequence: "QVQLVESGGGLVQAGGSLRLSCAASGRTFVKNAMGWYRQAPGKERELVAAISRTGSTNYADSVKGRFTISRDNAKNTVYLQMNSLKPEDTAVYYCAAVRYDYWGQGTQVTVSS"
  polyreactivity (PSR sort gate): "low polyreactivity"
- primary.sequence: "QVQLVESGGGLVQAGGSLRLSCAASGSTFRGNAMGWYRQAPGKERELVAAISSSGGSTNYADSVKGRFTISRDNAKNTVYLQMNSLKPEDTAVYYCAAERYFVWPFLLKYDYWGQGTQVTVSS"
  polyreactivity (PSR sort gate): "low polyreactivity"
- primary.sequence: "QVQLVESGGGLVQAGGSLRLSCAASGFIFGRNVMGWYRQAPGKERELVASISRSGGRTTYADSVKGRFTISRDNAKNTVYLLMNSLKPEDTAVYYCAKGQYQWERYVSHADYDWGQVTQVTVSS"
  polyreactivity (PSR sort gate): "high polyreactivity"
- primary.sequence: "QLQLVESGGGLVQAGGSLRLSCAASGRTFDSYAMGWYRQPPGKERELVAAIYADSVKGRFTISRDIAKNTVYLQMYSLTPEDSAVYYCAAETYSGQTYLGEYDYWGQGTQVTVSS"
  polyreactivity (PSR sort gate): "low polyreactivity"
- primary.sequence: "QVQLVESGGGLVQAGGSLRLSCAASGSILGRYAMGGYRQAPGKERELVASITRRAGTTYYADSVKGRFTISRDNAKNTVYLQKNSLKPEATAVYYCAARAYTNYYYWGQGTQVTVSS"
  polyreactivity (PSR sort gate): "high polyreactivity"
- primary.sequence: "QVQLVESGGGLVQAGGSLRLSCAASGFIFWSYAMGWYRQAPGKERELVAAIDLTGGSTYYADSVKGRFTISRDNAKNTVYFQMNSLKPEDTAVYYCNADGDTYAFTNSDSGFDYWGQGTQVTVSS"
  polyreactivity (PSR sort gate): "low polyreactivity"
- primary.sequence: "QVQLVESGGGLVQAGGSLRLSCAASGFIFYPNAMGWYRQAPGKERELVAVITGGGSTYYADSVKGLFTISRDNAKNTVYLQMNSLKPEDPAVYYCAARTLRAGYRASGVRRDYWRQGTQVTVSS"
  polyreactivity (PSR sort gate): "high polyreactivity"
- primary.sequence: "QVQLVESGGGLVPAGGSLRLSCAASGSTFKIYAMGWYRQAPGKERELVARITSGGSTNYADSVKGRFTISRDNAKNTVYLQMNSLKPDDTAVYYCAARRWSYSTRGQRSTNLDYWGQGTQVTVSS"
  polyreactivity (PSR sort gate): "high polyreactivity"
- primary.sequence: "QVQLVESGGGLVQAGGSLRLSCAASGSIFPFNAMGWYRQAPGKERELVAAIRWSDGRTYYADSVKGRFTISRDNAKNTVYLQMNSLKPEDTAVYYCAAKSYWGQGTQVTVSS"
  polyreactivity (PSR sort gate): "high polyreactivity"
- primary.sequence: "QVQLVESGGGLVQAGGSLRLSCAASGRIFYKNVMVWYRQAPGKERELVAAISTSTGRTYYADSVKGRFTISRDNAKNTVYLEMNSLKPEDTAVYYCNAVRGHTNGVLYRYDYWGQGTQVTVSS"
  polyreactivity (PSR sort gate): "high polyreactivity"
- primary.sequence: "QVQLVESGGGILQAGGSLRLSCAASGSTFSYYAMGWYRQAPGKERELVAAISYSGGRTYYADSVKGRFTISRDNAKNTVYLQMNSLKPEDTAVYYCAASGVFDSTRGVYYWGQGTQVTVSS"
  polyreactivity (PSR sort gate): "high polyreactivity"
- primary.sequence: "QVQLVESGGGLVQAGGSLRLSCAASGIIFAYYAMGWYRQAPGKVRELVASITNTGSTYYADSVKGRFTISRDNAKNTVYLQMNSLKPEDTAVYYCNAVLSSNTKWRYPGDYWGQGTQVTVSS"
  polyreactivity (PSR sort gate): "low polyreactivity"
- primary.sequence: "QVQLVESGGGLVQAGGSLRLSCDASGITQTVYAMGWYRQSPGKERELVAGIDWVGDTYADSVKGRFTISRDNAKNTVYLQMNSLKPEDTAVYYCAADNYSQGVPYDYWGQGSQVTVSS"
  polyreactivity (PSR sort gate): "low polyreactivity"

====

procedure.text: yeast display, Sf9 membrane polyspecificity reagent, FACS + sequencing; frameworks hold sequencing errors

- primary.sequence: "QVQLVESGGGLVQAGGSLRLSCAASGSTFVSNAMGWYRQAPGKERELVASISQSGGGTDYADSVKGRFTISRDNAKNTVYLQMNSLKPEDTAVYYCAADRVPVQAPYDYWGQGTQVTVSS"
  polyreactivity (PSR sort gate): "high polyreactivity"
- primary.sequence: "QVQHVESGRGLVQAGGSLRLICAASGRIFDLNDMGRSRQAPGKERELVAAITSAGSTYYADSVKGRFTISRDNAKNTVYLQMNSLKPEDTAVYYCNKVARGVVRPGRVGSDYWAQGTQVTVSS"
  polyreactivity (PSR sort gate): "high polyreactivity"
- primary.sequence: "QVQLVESGGGLVQAGGSLRLSCAASGSIFGRNAMGWYRHAPGKERELVARISSRGGSTYYADSVKGRFTISRDNAKKTVYLQMNSLKPEDTAVYYCNRDRTWQTNDYWGQGTQVTVSS"
  polyreactivity (PSR sort gate): "high polyreactivity"
